- MEASUREMENT_TARGET: GlcNAc(a1-4)Gal(b1-4)GlcNAc(b1-3)Gal(b1-4)[Fuc(a1-3)]GlcNAc(b1-3)Gal(b1-4)[Fuc(a1-3)]GlcNAc
- TEST_PROTOCOL: glycan array binding signal (z-score within array); higher = stronger binding
- SETTINGS: glycan notation: IUPAC condensed, linker removed
Shown is part of a subset that was picked to be rich in the strongest signals.
MEASURED_PARAMETER: glycan array binding signal (z-score)

| BINDER | REPORTED_VALUE |
| --- | --- |
| Flo1 (Saccharomyces cerevisiae), P32768 (protein) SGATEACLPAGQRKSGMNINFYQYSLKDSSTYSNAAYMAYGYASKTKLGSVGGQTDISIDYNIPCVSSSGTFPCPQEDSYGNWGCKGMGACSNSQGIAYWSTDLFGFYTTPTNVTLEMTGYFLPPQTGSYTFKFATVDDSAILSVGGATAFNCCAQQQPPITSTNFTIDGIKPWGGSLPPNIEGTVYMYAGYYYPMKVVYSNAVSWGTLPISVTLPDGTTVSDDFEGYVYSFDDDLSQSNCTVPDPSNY | 2.23 |

Prompt line: Which glycan array binding signal (z-score) reading was recorded for the binder SRS2 (Toxoplasma gondii), O15695 (protein) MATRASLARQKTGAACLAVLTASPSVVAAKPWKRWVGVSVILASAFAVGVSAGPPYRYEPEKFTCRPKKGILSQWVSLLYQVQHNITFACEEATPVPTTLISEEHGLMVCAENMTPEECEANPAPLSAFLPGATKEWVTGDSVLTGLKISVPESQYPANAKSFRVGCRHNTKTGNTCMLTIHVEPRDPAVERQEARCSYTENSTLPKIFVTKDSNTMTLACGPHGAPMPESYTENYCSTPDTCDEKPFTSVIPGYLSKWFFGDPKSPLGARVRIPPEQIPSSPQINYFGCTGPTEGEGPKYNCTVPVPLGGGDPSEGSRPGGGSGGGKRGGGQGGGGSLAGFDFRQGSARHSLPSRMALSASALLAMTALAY ?
Response line: 2.07
